assayed target: Phosphatidylinositol 4-kinase alpha (Bos taurus) (UniProt O02811)
Sequence (O02811 whole entry): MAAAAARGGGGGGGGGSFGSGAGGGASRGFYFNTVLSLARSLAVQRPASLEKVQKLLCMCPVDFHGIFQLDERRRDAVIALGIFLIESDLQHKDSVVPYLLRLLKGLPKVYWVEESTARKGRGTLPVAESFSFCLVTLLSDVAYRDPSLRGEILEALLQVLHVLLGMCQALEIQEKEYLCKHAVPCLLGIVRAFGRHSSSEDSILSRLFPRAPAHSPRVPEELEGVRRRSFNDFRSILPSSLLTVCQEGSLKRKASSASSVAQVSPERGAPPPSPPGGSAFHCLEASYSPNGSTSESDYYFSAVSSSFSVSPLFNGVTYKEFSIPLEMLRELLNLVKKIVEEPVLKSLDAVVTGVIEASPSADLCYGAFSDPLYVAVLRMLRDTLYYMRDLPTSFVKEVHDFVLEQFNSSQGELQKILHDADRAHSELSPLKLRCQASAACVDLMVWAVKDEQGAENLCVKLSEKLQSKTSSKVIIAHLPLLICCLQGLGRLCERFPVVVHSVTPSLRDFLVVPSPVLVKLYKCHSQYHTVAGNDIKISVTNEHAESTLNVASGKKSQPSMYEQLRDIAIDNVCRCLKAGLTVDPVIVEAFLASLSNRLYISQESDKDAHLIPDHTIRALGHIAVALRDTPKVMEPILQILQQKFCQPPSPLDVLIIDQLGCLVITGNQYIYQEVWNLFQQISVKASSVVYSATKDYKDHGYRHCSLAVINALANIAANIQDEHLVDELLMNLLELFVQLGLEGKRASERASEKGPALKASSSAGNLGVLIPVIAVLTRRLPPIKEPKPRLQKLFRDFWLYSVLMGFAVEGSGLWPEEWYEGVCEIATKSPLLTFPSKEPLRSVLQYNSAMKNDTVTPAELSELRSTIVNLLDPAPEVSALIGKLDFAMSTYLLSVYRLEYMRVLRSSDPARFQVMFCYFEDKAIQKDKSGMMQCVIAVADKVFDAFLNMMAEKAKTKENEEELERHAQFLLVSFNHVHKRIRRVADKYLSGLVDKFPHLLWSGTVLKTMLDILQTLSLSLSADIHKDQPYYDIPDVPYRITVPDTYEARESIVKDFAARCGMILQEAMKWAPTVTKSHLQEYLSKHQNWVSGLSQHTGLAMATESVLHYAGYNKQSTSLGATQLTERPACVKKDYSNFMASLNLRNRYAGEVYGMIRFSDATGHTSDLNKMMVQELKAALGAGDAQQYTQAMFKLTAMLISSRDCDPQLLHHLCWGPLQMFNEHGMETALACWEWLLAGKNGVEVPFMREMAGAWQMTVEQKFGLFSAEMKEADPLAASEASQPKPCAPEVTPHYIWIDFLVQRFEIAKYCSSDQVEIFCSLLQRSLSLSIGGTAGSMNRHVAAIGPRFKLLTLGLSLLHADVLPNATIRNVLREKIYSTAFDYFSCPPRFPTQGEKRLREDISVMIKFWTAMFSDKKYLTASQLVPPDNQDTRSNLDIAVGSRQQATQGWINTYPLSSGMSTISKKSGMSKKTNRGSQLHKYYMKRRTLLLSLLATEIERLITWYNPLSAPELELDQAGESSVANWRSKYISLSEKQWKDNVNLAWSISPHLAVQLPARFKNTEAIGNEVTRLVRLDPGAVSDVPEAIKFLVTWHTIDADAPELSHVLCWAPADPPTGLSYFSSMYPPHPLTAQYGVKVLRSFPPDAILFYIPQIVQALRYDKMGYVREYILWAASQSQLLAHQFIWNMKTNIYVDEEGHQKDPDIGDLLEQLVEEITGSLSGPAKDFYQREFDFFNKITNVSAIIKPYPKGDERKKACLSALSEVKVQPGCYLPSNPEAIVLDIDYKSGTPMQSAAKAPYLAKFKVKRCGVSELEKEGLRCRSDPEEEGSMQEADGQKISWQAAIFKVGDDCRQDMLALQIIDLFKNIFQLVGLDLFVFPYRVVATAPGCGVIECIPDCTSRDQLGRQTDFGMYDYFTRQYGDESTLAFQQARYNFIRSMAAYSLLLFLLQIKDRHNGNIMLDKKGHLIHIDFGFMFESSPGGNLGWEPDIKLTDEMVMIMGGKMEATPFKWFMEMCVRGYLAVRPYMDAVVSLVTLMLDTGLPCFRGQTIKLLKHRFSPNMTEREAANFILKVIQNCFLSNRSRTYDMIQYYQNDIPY
experimental protocol: Inactivation of the enzyme PI4K230 from bovine brain membranes
Design: concentration or dose not given beside the values
Property: Remaining activity; scope: individual compounds
readout: Remaining activity (%)

# compound, readout, value reported
data = [
    ("CC1(C)OC2CC(=O)C[C@@H](O)C2O1 (stereo not given in full)", "Remaining activity", 80),
    ("CC(=O)O[C@@H]1CC(=O)[C@@H](OCc2ccccc2)[C@H](N=[N+]=[N-])C1", "Remaining activity", 82),
    ("[N-]=[N+]=N[C@@H]1C[C@@H](O)CC(=O)[C@H]1OC(=O)c1ccccc1", "Remaining activity", 80),
    ("[N-]=[N+]=N[C@@H]1CC=CC(=O)[C@H]1OC(=O)c1ccccc1", "Remaining activity", 5),
    ("CC(=O)O[C@@H]1[C@@H](NC(=O)c2ccccc2)[C@@H](O)CC(=O)[C@H]1OC(C)=O", "Remaining activity", 56),
    ("CC(=O)O[C@@H]1C[C@@H](N=[N+]=[N-])[C@H](OC(=O)c2ccccc2)C2(C1)SCCS2", "Remaining activity", 96),
    ("[N-]=[N+]=N[C@@H]1C[C@@H](O)C/C(=N\\O)[C@H]1OC(=O)c1ccccc1", "Remaining activity", 66),
    ("[N-]=[N+]=N[C@@H]1C[C@@H](O)CC(=O)[C@H]1OCc1ccccc1", "Remaining activity", 85),
    ("COC(=O)/C=C1\\C[C@H](O)C[C@@H](N=[N+]=[N-])[C@@H]1OC(=O)c1ccccc1", "Remaining activity", 63),
    ("O=C(O[C@@H]1C(=O)C[C@H](O)C[C@H]1OC(=O)c1ccccc1)c1ccccc1", "Remaining activity", 84),
]

Source: ChEMBL document CHEMBL1134351
